- test_system: T1, HLA-A*0201 (human)
- T1 construct: also called HLA-A2.1
- procedure_summary: competitive inhibition of 125I-labelled standard peptide binding to purified HLA, gel filtration
value_type: relative binding ratio (IC50 of standard peptide / IC50 of test peptide) (ratio)

[[record]]
binder = "PAEQRASPL (Synthetic peptide) [HER2/neu A02 supermotif peptide, position 643, 9 amino acids]"
unit_descriptor = "ratio"
observed_measurement = 0.0001

[[record]]
binder = "PAREIPDLL (Synthetic peptide) [HER2/neu A02 supermotif peptide, position 927, 9 amino acids]"
unit_descriptor = "ratio"
observed_measurement = 0.0001

[[record]]
binder = "PAFSPAFDNL (Synthetic peptide) [HER2/neu A02 supermotif peptide, position 1211, 10 amino acids]"
unit_descriptor = "ratio"
observed_measurement = 0.0001

[[record]]
binder = "PASPETHLDM (Synthetic peptide) [HER2/neu A02 supermotif peptide, position 36, 10 amino acids]"
unit_descriptor = "ratio"
observed_measurement = 0.0001

[[record]]
binder = "PAARPAGATL (Synthetic peptide) [HER2/neu A02 supermotif peptide, position 1158, 10 amino acids]"
unit_descriptor = "ratio"
observed_measurement = 0.0001

[[record]]
binder = "LVSEFSRM (Synthetic peptide) [HER2/neu A02 supermotif peptide, position 972, 8 amino acids]"
unit_descriptor = "ratio"
observed_measurement = 0.0001

[[record]]
binder = "NLQVIRGRIL (Synthetic peptide) [HER2/neu A02 supermotif peptide, position 427, 10 amino acids]"
unit_descriptor = "ratio"
observed_measurement = 0.0001

[[record]]
binder = "MARDPQRFV (Synthetic peptide) [HER2/neu A02 supermotif peptide, position 979, 9 amino acids]"
unit_descriptor = "ratio"
observed_measurement = 0.0001

[[record]]
binder = "LVCPLHNQEV (Synthetic peptide) [HER2/neu A02 supermotif peptide, position 313, 10 amino acids]"
unit_descriptor = "ratio"
observed_measurement = 0.0002

[[record]]
binder = "MIMVKCWMI (Synthetic peptide) [HER2/neu A02 supermotif peptide, position 953, 9 amino acids]"
unit_descriptor = "ratio"
observed_measurement = 0.0051

[[record]]
binder = "NVKIPVAIKV (Synthetic peptide) [HER2/neu A02 supermotif peptide, position 745, 10 amino acids]"
unit_descriptor = "ratio"
observed_measurement = 0.0001

[[record]]
binder = "NASLSFLQDI (Synthetic peptide) [HER2/neu A02 supermotif peptide, position 68, 10 amino acids]"
unit_descriptor = "ratio"
observed_measurement = 0.0001

[[record]]
binder = "LVSEFSRMA (Synthetic peptide) [HER2/neu A02 supermotif peptide, position 972, 9 amino acids]"
unit_descriptor = "ratio"
observed_measurement = 0.0001

[[record]]
binder = "NVLVKSPNHV (Synthetic peptide) [HER2/neu A02 supermotif peptide, position 850, 10 amino acids]"
unit_descriptor = "ratio"
observed_measurement = 0.0001

[[record]]
binder = "MAGVGSPYV (Synthetic peptide) [HER2/neu A02 supermotif peptide, position 774, 9 amino acids]"
unit_descriptor = "ratio"
observed_measurement = 0.0014

[[record]]
binder = "LVDAEEYLV (Synthetic peptide) [HER2/neu A02 supermotif peptide, position 1017, 9 amino acids]"
unit_descriptor = "ratio"
observed_measurement = 0.003

